Data provenance is the supplement of paper PMC6757056.

Entries and their normalized RNA/DNA level with ligand (log10)
B1: library; a variant is named by its letters at N, in order (parent)
chain: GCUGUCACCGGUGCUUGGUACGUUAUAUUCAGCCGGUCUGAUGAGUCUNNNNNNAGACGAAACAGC

variants of: B1; assay: normalized RNA/DNA level with ligand (relative to sTRSVctl = 100) (log10 (% of sTRSVctl)); HEK293T overexpressing SLC46A1; ligand concentration (+) RNA-Seq: 6 mM; higher = less ribozyme self-cleavage, higher mRNA level; details: with (6R,S)-folinic acid; ligand present: yes
Lab note: jot down the number only; don't add units.

Below, each entry is followed by its recorded normalized RNA/DNA level with ligand (log10) result.
GGCCCG 2.07
CGACGG 1.97
AUAUGG 2
AGCCAU 1.99
CGACAA 1.96

What measured normalized RNA/DNA level with ligand (log10) goes with CUUUGC ?
2.03

What about GCCCUA ?
2.05

Queued: AAGGGA
2.03

One more variant: ACUAAU
2.01

Entry to check: GGUACG
2.04
